- System: CAKI-1 renal
- PROTOCOL NOTES: NCI tumour cell line growth inhibition, 48 h; in the data active = GI50 below about 0.43 µM; inactive = the rest
Possible outcomes: active, inactive

Nc1nc(Cl)c(N=Nc2ccc(Cl)cc2)c(NCC2(CO)CC(OCc3ccccc3)C2)n1 (stereo not drawn)    inactive
CCC[CH2][Sn]1([CH2]CCC)[O]C(=O)c2cccc(OC)c2[O]1    active
CS(=O)(=O)Nc1cccc(-c2ccc3c(NC(=O)C4CC4)n[nH]c3c2)c1    inactive

====

Recorded log10 of TGI for the following compounds
- Tested on: NCI-H522 lung
- PROTOCOL NOTES: NCI tumour cell line growth inhibition, 48 h
PROPERTY NAME: log10 of TGI (log10 of the value in µM)

O=C1C=CC[C@H](/C=C/C[C@@H](O)C[C@H](O)/C=C/c2ccccc2)O1    1.26
Oc1ccc2c3c1OC1C(=NN=C4CCC5(O)C6Cc7ccc(O)c8c7C5(CCN6CC5CC5)C4O8)CCC4(O)C(C2)N(CC2CC2)CCC314 (stereo unspecified)    1.76
COc1cc(-c2c3c([nH]c(=O)c2C#N)-c2cc([N+](=O)[O-])ccc2CCC3)cc(OC)c1OC    1.77
COc1ccc2c[n+](C)c3c4cc(OC)c(OC)cc4ccc3c2c1    0.88
C=C(CN(C)C)C(=O)c1cc(C)ccc1C    0.18
CCn1c(-c2ccccc2)nc2c1C(=O)c1ccccc1C2=O    1.63
CC1(C)CCCCCC(C)(CCCCCCCCCCCO)C1=O (stereo unspecified)    1.49
COc1cc(C(=O)N2CCN(c3ccccc3OC)CC2)c(N)cc1OCc1ccccc1    1.91
CC1CC(C)/C(=N/NC(N)=O)C(C(O)CC2CCC(=O)NC2=O)C1 (stereo unspecified)    1.26
CC(C)(C)c1cn2cccc(C(=O)N3CCN(CC(=O)Nc4ccc(Cl)cc4C(=O)c4ccccc4Cl)CC3)c2n1    1.72
Nc1nc(Cl)c(N=Nc2ccc(Cl)cc2)c(NCC2(CO)CC(OCc3ccccc3)C2)n1 (stereo unspecified)    0.63
O=C(CC(O)c1ccncc1)c1ccccc1 (stereo unspecified)    2.00
Oc1ccccc1Nc1nc2ccccc2c2occc12    1.38
CC(=O)[O-].[Ni].c1ccc(/C(=N\Nc2ccccn2)c2ccccn2)cc1    1.32

====

- Tested on: SN12C renal
- PROTOCOL NOTES: NCI tumour cell line growth inhibition, 48 h
Below, each entry is listed alongside its reported TGI.
PROPERTY NAME: TGI

CNC(=O)c1n[nH]n(Cc2ccccc2)c1=S    > 100 µM
CCSc1nc(N2CCCCC2)c2cn[nH]c2n1    > 100 µM
CN(C)c1ccc(/C=C/c2ccnc3ccccc23)cc1N    34.4 µM
COc1cc(C2c3[nH]c4ccc(F)cc4c3C[C@H]3COC(=O)N23)cc(OC)c1O (some centres not stated)    35.5 µM
C[N+](C)(C)Cc1c(CC#N)[nH]c2ccccc12    > 100 µM
CS(=O)(=O)Nc1cccc(-c2ccc3c(NC(=O)C4CC4)n[nH]c3c2)c1    > 25 µM
O=C(Nc1nncs1)NS(=O)(=O)n1cnc2ccccc21    > 100 µM
O=C1/C(=C/c2ccc([N+](=O)[O-])o2)Oc2ccccc21    5.53 µM
CCCCCCCCCCCCCC(=O)OC(/C=C/C(C)C)C(O)C(O)C(OC)C(=O)NC1CCCCNC1=O (configuration not stated)    4.39 µM
COc1ccc(/C(=N\O)c2cc(OC)c(OC)c(OC)c2)c(OC)c1N    > 100 µM
CCCCCCCCCCCCSC(=NC)NC    7.69 µM
COc1cc2c(oc(=O)c3cc4ccoc4c(OC)c32)c2cccc(O)c12    > 100 µM
O[C@@H]1CCCN1Cc1cc2cc3c(cc2c2cc(OCc4ccccc4)ccc12)OCO3    20.3 µM
CC1CC(C)/C(=N/NC(N)=O)C(C(O)CC2CCC(=O)NC2=O)C1 (configuration not stated)    > 100 µM
O=C(CC/C(CC(=O)c1ccc(Cl)cc1)=N/O)Nc1ccc(Cl)c(Cl)c1    > 100 µM
COc1ccc(/C=C(\C(=O)OCC(C)C)c2ccc(OC)c(OC)c2)cc1OC    > 100 µM
C=C(CN(C)C)C(=O)c1cc(C)ccc1C    42.6 µM
CC1C=CC(C)C2(O)C(=O)NC(O)C12 (configuration not stated)    > 100 µM
Clc1ccc2c(c1)CC1C[N+]3=C(CCCC3)C1=C2 (configuration not stated)    > 100 µM
O=c1[nH]ccc2nc(-c3ccc(CN4CCC(c5nc(-c6ccccn6)n[nH]5)CC4)cc3)c(-c3ccccc3)cc12    > 100 µM
C=CCOC(=O)CCCCCCCCCCCCCCCOC(=O)c1c(CCC[C@@H](C)O[Si](C)(C)C(C)(C)C)nc(=O)n2c1CC[C@H]2CC1(CC/C=C\[C@H](CC)O[Si](C(C)C)(C(C)C)C(C)C)OCCO1    > 100 µM
O=C1OC2c3ccccc3C(=O)C2(c2ccccc2)N1c1ccccc1 (configuration not stated)    > 200 µM
CC(=O)Nc1ccc(S(=O)(=O)[N-]C2C(=O)c3ccccc3C(=O)C2[n+]2ccccc2)cc1 (configuration not stated)    > 100 µM
COC1=CC(=O)c2c(O)ccc(O)c2C1=O    7.55 µM
C=C(C)[C@@H]1CC[C@]2(C(=O)O)CC[C@]3(C)[C@H](CC[C@@H]4[C@@]5(C)C[C@@H](CC#Cc6ccc(Br)cc6)C(=O)C(C)(C)[C@@H]5CC[C@]43C)[C@@H]12    9.25 µM
O=c1oc2ccc(F)cc2c(=O)n1-c1ccc(Cl)cc1F    6.92 µM
COc1ccc(CC2NCCc3cc(OC)c(OC)cc32)cc1 (configuration not stated)    > 100 µM
Cc1cc(C)nc(NS(=O)(=O)c2ccc(NNC(=O)c3cccc4c(NNc5ccc(S(=O)(=O)Nc6nc(C)cc(C)n6)cc5)c5ccccc5nc34)cc2)n1    > 100 µM
O=C(Nc1ccccc1)Nn1c(-c2cccs2)nc2ccc(I)cc2c1=O    > 100 µM
COc1ccc(C(=O)/C=C/c2ccc(OCC(=O)O)cc2)cc1    > 100 µM
c1ccc2c(c1)CCN1CCc3c([nH]c4ccccc34)C21 (configuration not stated)    > 100 µM
c1nc(SSc2ncnc3nc[nH]c23)c2[nH]cnc2n1    > 73.3 µM
c1ccc2c(-c3nc4ccccc4[nH]3)cccc2c1    > 100 µM
Nc1ccc(C(=O)NN2C(=O)C(Cl)C2c2ccc([N+](=O)[O-])cc2)cc1 (configuration not stated)    30 µM
CCCC(=O)/C=C/S/C=C/C(=O)CCC    28 µM
N#Cc1c(NC(=O)c2cccc3ccccc23)sc2c1CCCC2    > 25 µM
Cc1ccc([N+](=O)[O-])cc1NC(=O)C(=O)Cc1cc(=O)oc2cc(O)ccc12    > 100 µM
